From: paper PMC6349905

# TESTED_ON: sigma-2 receptors (Rattus norvegicus, UniProt Q5U3Y7)
# Sequence (Q5U3Y7 whole entry): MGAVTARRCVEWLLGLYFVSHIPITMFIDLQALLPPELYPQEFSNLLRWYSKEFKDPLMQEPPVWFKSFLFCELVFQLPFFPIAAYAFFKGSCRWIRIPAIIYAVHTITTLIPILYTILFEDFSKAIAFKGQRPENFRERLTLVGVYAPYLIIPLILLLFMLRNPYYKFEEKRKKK
# METHOD_SUMMARY: Sigma-2 receptor competition binding assay with [3H]DTG
# Parameters: 60 μg Sprague Dawley rat liver membrane homogenates; from tissue; host or cells: Sprague Dawley rat liver membrane homogenates
# TEST_SETTINGS: rat liver membranes, 5 nM [3H]DTG, 500 nM (+)-pentazocine mask, mean ± SD; read-out: Ki for sigma-2 receptors
pKi: −log10 of the molar value.
TEST_READOUT: pKi

1. COc1cc2c(cc1OC)CN(CCCCNC(=O)c1cc(C)ccc1OCCF)CC2
8.70
2. COc1cc2c(cc1OC)CN(CCCCNC(=O)c1cc(I)cc(OC)c1OC)CC2
8.62
3. COc1cccc2c1CCCC2CCCN1CCN(C2CCCCC2)CC1 (stereo not drawn)
8.96
